PROCEDURE_DETAILS: yeast display, Sf9 membrane polyspecificity reagent, FACS + sequencing; frameworks hold sequencing errors
MEASUREMENT_KIND: polyreactivity (PSR sort gate)

polymer_sequence=QVQLVESGGGLVQAGGSLRLSCAASGFTFYAYAMGWYRPAPGKERELVAGISWSGGSTYYADSVKGRFTISRDNAKNTVYLQMNSLKPEDTAVYYCAAYSIAELWEYYYWGQGTQVTVSS measurement_kind="polyreactivity (PSR sort gate)" endpoint_value="low polyreactivity"
polymer_sequence=QVQLVESGGGLVQAGGSLRLSCAASGRIFGPNAMGWYRQAPGKERELVAAISWSGSSTRYADSVKGRFTISRDNAKNTVYLQMNSLKPEDTAVYYCAARRQSPDRYTKYEYWGQGTQVTVSS measurement_kind="polyreactivity (PSR sort gate)" endpoint_value="low polyreactivity"
polymer_sequence=QVQLVESGGGLVQAGGSLRLSCAASGSIFWVNAMGWYRQAPGKERELVAAITWSAGSTYYADSVKGRFTISRDNAKNTVYLQMNSLKPEDTAVYYCAAGGAWYYWTLDYWGQGTQVTVSS measurement_kind="polyreactivity (PSR sort gate)" endpoint_value="low polyreactivity"
polymer_sequence=QVQLVESGGGLVQAGGSLRLSCAASGSTFVYNDMGWYRQAPGKEREFVAVINWSGGRTYADSVKGRFTISRDNAKNTVYLQMNSLKPEDTAVYYCNARRRTGYRPAMDYWGQGTQVTVSS measurement_kind="polyreactivity (PSR sort gate)" endpoint_value="high polyreactivity"
polymer_sequence=QVQLVESGGGLVQAGGSLRLSCAASGFAFSYYAMGWYRQAPGKEREFVASIDWSGGSTYYADSVKGRFTISRDNAKNTVFLQMNSLKPEDTAVYYCAAELDYFPGYDYWGQGTQVTVSS measurement_kind="polyreactivity (PSR sort gate)" endpoint_value="low polyreactivity"
polymer_sequence=QVQLVESGGGLVQAGGILRLSCAASGLIIGEYDMGWYRQAPGKERELVAAMSDRGTSTYYADSVKGRFTISRDNAKNTVDLPMNSLKPEDTAVYYCATDRIYYYSWEYDYWGQGTQVTVSS measurement_kind="polyreactivity (PSR sort gate)" endpoint_value="low polyreactivity"
polymer_sequence=QVQLVESGGGLVQAGGSLRLSCAASGRIYGYYGMGWYRQAPGKERELVAAITYRGGSTYYADSVKGRFTISRDNAKNTVYLQMNSLKPEDTAVYYCAADGYSHYRYLYDYWGQGTQVTVSS measurement_kind="polyreactivity (PSR sort gate)" endpoint_value="low polyreactivity"
polymer_sequence=QVQLVETGGGLVQAGGSLRLSCAASGSIFIYFAMGWYRQAPGKERELVAAIDRSGGNTYYADSVKGRFTLSRDYAKNTVYLQMNSLKPEDTAVYYCAALVHRRVQYDYWGQGTQVTVSS measurement_kind="polyreactivity (PSR sort gate)" endpoint_value="high polyreactivity"
polymer_sequence=QVQLVESGGGLVQAGGSLRLSCAASGRTFRRNTMGWYRQAPGQEWELVAAISSSGSSTYYADSVKGRFTISRDNAKNTVYLQMKSLKPEDTAVYYCAATGYPRFGYWGQGTQVTVSS measurement_kind="polyreactivity (PSR sort gate)" endpoint_value="high polyreactivity"
polymer_sequence=QVQLVESGGGLVQAGGSLRLSCAASGFTFYIYAMGWYRQAPGKERELVAAITGSGGRTYYADSVKGRFTISRDTAKNTVYLQMNSLKPEDTAVYYCAADKYRRGLAGAVARVNYWGQGTQVTVSS measurement_kind="polyreactivity (PSR sort gate)" endpoint_value="high polyreactivity"
polymer_sequence=QVQLVESGGGLVQAGGSLRLSCAASGSIFAKYAMGLYRQAPGKERELVAGITRGGSTYYADSVKGRFTISRDNAKNTVYLQMNSLKQEDTAVYYCAAKRHTSLYVYYYWGLGTQVTVSS measurement_kind="polyreactivity (PSR sort gate)" endpoint_value="high polyreactivity"
polymer_sequence=QVQLVESGGGLVQAGGSLRLSCAASGSTFPKYAMGWYRQAPGKERELVAGISWRGGRTYYADSVKGRFTISRDNAKNTVYLQMNSLKPEDTAVYYCATDYYAFNQGEVKWYDYWGQGTQVSVSS measurement_kind="polyreactivity (PSR sort gate)" endpoint_value="high polyreactivity"
polymer_sequence=QVQLVESGGGLVQAGGSLRLSCAASGGTFNGYAMGWYRQAPGKERELVAAITSSGGSTYYADSVKGRFTISRDNAKNTVYLQMNSLKPEDTAVYYCAAALYPTYDVVRGYAYEYWGQGTQVTVSS measurement_kind="polyreactivity (PSR sort gate)" endpoint_value="low polyreactivity"
polymer_sequence=QVQLVESGGGLVQAGGSLRLSCAASGLTFESYAMGWYRQAPGKERELVAGIDWSGGSTYYADSVKGRFTISRDNAKNTVYLQMNSLKPEDTAGYYCKRYGNSNYFAPGPLYNYWGQGTQVTVSS measurement_kind="polyreactivity (PSR sort gate)" endpoint_value="high polyreactivity"
polymer_sequence=QVQLVESGGGLVQAGGSLRLSCAASGSTFWYYTMGWYRQAPGKERELVAGITSGGSTYYADSVKGRFTISRDNAKNTVYLQMNSLKPEDTAVYYCAKRYYGRGYYYWGQGTQVTVSS measurement_kind="polyreactivity (PSR sort gate)" endpoint_value="high polyreactivity"
polymer_sequence=QVQLVESGGGLVQAGGSLRLSCAASGSTFEFNDMGWYRQAPGKERELVASIRHSDGSTYYADSVKGRFTISRDNAKNTVYLQMNSLKPEDTAVYYCNKAFQWSGGQVSYDYWGQGTQVTVSS measurement_kind="polyreactivity (PSR sort gate)" endpoint_value="low polyreactivity"
polymer_sequence=QVQLVESGGGLVQAGGSLRLSCAASGFTFVPYAMGWYRQAPGKEREFVADITSSGTTNYADSVKGRFTISRDNAKNTVYLQMNSLKPEDTAVYYCAADPDSGQVPFDYWGQGTQVTVSS measurement_kind="polyreactivity (PSR sort gate)" endpoint_value="low polyreactivity"
polymer_sequence=QVQLVESGVGLVQAGGSLRISCAASGRIYRSNAMGWYRQAPGKERELLAAISSNGGSTYYADSVKGRFTISRDNAKNTVYLQMNSLKPEDTAVYYCAARVYYPVRYGYWGQGTQVSVSS measurement_kind="polyreactivity (PSR sort gate)" endpoint_value="high polyreactivity"
polymer_sequence=QVQLVESGGGLVQAGGSLRLSCAASGRTFIIYTMGWYRQAPGKEREFVAAITRSGGGTYYADSVKGRFTISRDNAKNTVYLQMNSLKPEDTAVYYCAADRFYDQAYDYWGQGTQVTVSS measurement_kind="polyreactivity (PSR sort gate)" endpoint_value="low polyreactivity"
polymer_sequence=QVQLVESGGGLVQAGGSLRLSCAASGSTFLYYAMGWYRQAPGKERELVARITTRVGRTYYADSVKGRFTISRDNAKNTVYLQMNSLKPEDTAVYYCATGGSKEMDYWGQGTQVTVSS measurement_kind="polyreactivity (PSR sort gate)" endpoint_value="high polyreactivity"
polymer_sequence=QVHLVESGGGLVQAAGSLRLSCAASGITFAPYAMGWYRQAPGKERELVAGINTGGSTYYADSVKGRFTISRDKEKNTVYLQMNSLKPEDTAFYYCATDSYPADQDIPGCDYWGQGTQVTVSS measurement_kind="polyreactivity (PSR sort gate)" endpoint_value="low polyreactivity"
